Measured self-cleavage values are reported for all entries that follow.
B1: LINE1-mini (parent)
chain: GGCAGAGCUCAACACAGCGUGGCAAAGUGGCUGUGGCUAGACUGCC

Variants of: B1
Test: self-cleavage, relative activity (ratio to wild type); higher = more cleavage; in vitro, sequencing; the parent is a self-cleaving ribozyme

>>> reported_measurement("G19A C46A")
0.81
>>> reported_measurement("C8G A25U")
0.26
>>> reported_measurement("G2C A11C")
0.02
>>> reported_measurement("A24G A41G")
0.6

Field self-cleavage (entry C3U G7U ) reads 0.11

Entry G36A C46A — recorded self-cleavage = 0.14

Per the records, this variant ( C18G G21A ) has self-cleavage equal to 0.77

# self-cleavage (variant: U9C G35A ) is 0.06

All figures here come from the RNAGym collection of RNA variant scans (doi:10.7554/elife.90254).
